# System: ATP;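 further: ATP exposure 15 min at 22 °C before imaging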
# EXPERIMENT: switch fluorescence ratio, 500 uM ATP over buffer (Cy3 cluster intensity, sum of 5 cycles each) (fold (ratio)); higher = stronger signal-on switching upon ATP binding; sequences stand for … in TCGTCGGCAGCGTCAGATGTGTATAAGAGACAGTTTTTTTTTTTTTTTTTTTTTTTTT…TC
# MEASUREMENT CONDITIONS: aptamer strand: ATP DNA aptamer (quencher-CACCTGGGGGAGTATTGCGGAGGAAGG + anchor), 100 nM annealed; ATP concentration: 500 uM
Please note: Met applies when switch fluorescence ratio is 1 or greater, and Not met applies otherwise.

Request: // inclusive: switch fluorescence ratio at least 1? input: `ACTAAGGGCG`
Response: Met

Request: // inclusive: switch fluorescence ratio at least 1? input: `CGGCTTACAC`
Response: Met

Request: // inclusive: switch fluorescence ratio at least 1? input: `CAGAGAGGTC`
Response: Met

Request: // inclusive: switch fluorescence ratio at least 1? input: `TCTCTGTTTT`
Response: Met

Request: // inclusive: switch fluorescence ratio at least 1? input: `TGTGGGAGCG`
Response: Not met

Request: // inclusive: switch fluorescence ratio at least 1? input: `ACGGTATTTG`
Response: Met

Request: // inclusive: switch fluorescence ratio at least 1? input: `GGGCTCAGAA`
Response: Met

Request: // inclusive: switch fluorescence ratio at least 1? input: `TTTAAATCTT`
Response: Met

Request: // inclusive: switch fluorescence ratio at least 1? input: `TCCGGGTATC`
Response: Met

Request: // inclusive: switch fluorescence ratio at least 1? input: `GAGGCTATCT`
Response: Met

Request: // inclusive: switch fluorescence ratio at least 1? input: `TAGCGTTTCC`
Response: Met

Request: // inclusive: switch fluorescence ratio at least 1? input: `TTACAATATT`
Response: Met

Request: // inclusive: switch fluorescence ratio at least 1? input: `TTCCTTTTGT`
Response: Met

Request: // inclusive: switch fluorescence ratio at least 1? input: `AATAAATCCT`
Response: Met

Request: // inclusive: switch fluorescence ratio at least 1? input: `ATCAAAGAAC`
Response: Met

Request: // inclusive: switch fluorescence ratio at least 1? input: `GGAGGATGCT`
Response: Not met

Request: // inclusive: switch fluorescence ratio at least 1? input: `TAGCACCATT`
Response: Met

Request: // inclusive: switch fluorescence ratio at least 1? input: `AATTGAAAAT`
Response: Not met

Request: // inclusive: switch fluorescence ratio at least 1? input: `TTGTTTGGTG`
Response: Not met

Request: // inclusive: switch fluorescence ratio at least 1? input: `AAGTTTTGAG`
Response: Met

Request: // inclusive: switch fluorescence ratio at least 1? input: `TATCACTTCC`
Response: Met

Request: // inclusive: switch fluorescence ratio at least 1? input: `TAATTTAAAA`
Response: Met

Request: // inclusive: switch fluorescence ratio at least 1? input: `AAGGGTGCTC`
Response: Met

Request: // inclusive: switch fluorescence ratio at least 1? input: `TAACCTTTAA`
Response: Met

Request: // inclusive: switch fluorescence ratio at least 1? input: `ATTCGTTTCT`
Response: Not met

Request: // inclusive: switch fluorescence ratio at least 1? input: `TGTTAAATGG`
Response: Not met

Request: // inclusive: switch fluorescence ratio at least 1? input: `GACGATAGAT`
Response: Met

Request: // inclusive: switch fluorescence ratio at least 1? input: `GCTTTATTCC`
Response: Met
